Assay: Solubility at pH 6.8
Type: physicochemical
Details: pH 6.8, aqueous buffer, thermodynamic from solid; read-out: solubility
Excerpt: The physicochemical properties of relevance for the absorption of the compound, such as the solubility and the membrane permeability, especially at a pH close to neutral pH can be measured using the procedure as described by L. ZHOU et al. in JOURNAL OF PHARMACEUTICAL SCIENCES, VOL. 96, NO. 11, p. 3052-3071 (2007) for the solubility at pH 6.8 and the procedure as described by F. Wohnsland and B. Faller in Journal of Medicinal Chemistry Vol 44, p. […]
measured-parameter: log10 of solubility (log10 of the value in µg/mL)
# log10 transformed; quantity=solubility; unit=µg/mL

>  <smiles-notation>
Cc1nn(C)cc1-n1c(=O)n(C)c2cnc3ccc(-c4cnc(Cl)c(N)c4)cc3c21

>  <measured-parameter>
log10 of solubility

>  <measurement>
0.60

$$$$
>  <smiles-notation>
CCN(C)c1ccc(-c2ccc3ncc4c(c3c2)n(-c2cn(CC)nc2C)c(=O)n4C)cn1

>  <measured-parameter>
log10 of solubility

>  <measurement>
1.00

$$$$
>  <smiles-notation>
CCOc1ccc(-c2ccc3ncc4c(c3c2)n(-c2cn(CCO)nc2C)c(=O)n4C)cn1

>  <measured-parameter>
log10 of solubility

>  <measurement>
1.00

$$$$
>  <smiles-notation>
CCOc1ccc(-c2ccc3ncc4c(c3c2)n(-c2cn(CC)nc2C)c(=O)n4C)cn1

>  <measured-parameter>
log10 of solubility

>  <measurement>
0.60

$$$$
>  <smiles-notation>
COc1cc(-c2ccc3ncc4c(c3c2)n(-c2cn(C)nc2C)c(=O)n4C)cnc1C

>  <measured-parameter>
log10 of solubility

>  <measurement>
0.90

$$$$
>  <smiles-notation>
CCOc1ccc(-c2ccc3ncc4c(c3c2)n(-c2cn(CC)nc2C)c(=O)n4C)cc1OC

>  <measured-parameter>
log10 of solubility

>  <measurement>
0.48

$$$$

[in] Item Cc1nn(C(C)C)cc1-n1c(=O)n(C)c2cnc3ccc(-c4cnc(N)c(F)c4)cc3c21 has what recorded log10 of solubility?
[out] 0.70

[in] How about this molecule: Cc1nn(C(C)C)cc1-n1c(=O)n(C)c2cnc3ccc(-c4ccc(N5CCC5)nc4)cc3c21
[out] 0.85

[in] Also, CNC(=O)c1cc(-c2ccc3ncc4c(c3c2)n(-c2cn(C)nc2C)c(=O)n4C)cnc1N please.
[out] 0.70

[in] // query: Cc1nn(C)c(C)c1-n1c(=O)n(C)c2cnc3ccc(-c4cccc(S(=O)(=O)N(C)C)c4)cc3c21
[out] 1.60

[in] Another molecule to check: COCc1ccc(-c2ccc3ncc4c(c3c2)n(-c2cn(C)nc2Cl)c(=O)n4C)cn1
[out] 1.08
